- Target or system: T1, dimeric hActRIIA (human, UniProt P27037 20-135)
- T1 construct: also called ActRIIA DIMER; ActRIIA dimer
- T1 sequence (P27037 20-135): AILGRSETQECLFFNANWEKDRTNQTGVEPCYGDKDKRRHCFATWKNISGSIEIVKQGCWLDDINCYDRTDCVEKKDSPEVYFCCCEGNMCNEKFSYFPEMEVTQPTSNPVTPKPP
- Measurement description: SPR (Biacore), 37 C, antibody captured on anti-hFc IgG chip, dimeric ActRIIA injected

Binder	binding result
L01 (antibody, human IgG1, kappa, V domains shown, Naive human IgG; also called L01 antibody; mAB L01) VH: QLQLQESGPGLVKPSETLSLTCTVSGGSISSSSYYWGWIRQPPGKGLEWIGSISYSGSTYYNPSLKSRVTISVDTSKNQFSLKLSSVTAADTAVYYCARDSLRYGMDVWGQGTTVTVSS VL: EIVMTQSPATLSVSPGERATLSCRASQSVSSNLAWYQQKPGQAPRLLIYGASTRATGIPARFSGSGSGTEFTLTISSLQSEDFAVYYCQVYNVWPRTFGGGTKVEIKR	no binding
M01 (antibody, V domains shown, Optimized human IgG; It was captured through its Fc on an anti-hFc IgG chip; also called M01 antibody; mAB M01) VH: EVQLLESGGGLVQPGGSLRLSCAASGFTFGSYGMTWVRQAPGKGLEWVSVISGSGGGTYYADSVKGRFTISRDNSKNTLYLQMNSLRAEDTAVYYCAKGPRVVGMDVWGQGTTVTVSS VL: DIQMTQSPSSVSASVGDRVTITCRASQGISSWLAWYQQKPGKAPKLLIYAASSLQSGVPSRFSGSGSGTDYTLTISSLQPEDFATYYCQQVFSYPLTFGGGTKVEIK	no binding
N01 (antibody, human IgG1, kappa, V domains shown, also called N01 antibody; mAB N01) VH: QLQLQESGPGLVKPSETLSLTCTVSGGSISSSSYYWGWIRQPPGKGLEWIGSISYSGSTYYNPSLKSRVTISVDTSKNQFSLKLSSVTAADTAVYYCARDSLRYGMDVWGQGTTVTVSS VL: DIQMTQSPSTLSASVGDRVTITCRASQSIGSWLAWYQQKPGKAPKLLIYKASSLESGVPSRFSGSGSGTEFTLTISSLQPDDFATYYCQVYGSYSPRTFGGGTKVEIKR	no binding

// data source = patent US20260132207A1
